Data origin: patent US20070276011A1

- tested on: recombinant human PAI-1 (Homo sapiens, UniProt P05121)
- Sequence (P05121 24-402): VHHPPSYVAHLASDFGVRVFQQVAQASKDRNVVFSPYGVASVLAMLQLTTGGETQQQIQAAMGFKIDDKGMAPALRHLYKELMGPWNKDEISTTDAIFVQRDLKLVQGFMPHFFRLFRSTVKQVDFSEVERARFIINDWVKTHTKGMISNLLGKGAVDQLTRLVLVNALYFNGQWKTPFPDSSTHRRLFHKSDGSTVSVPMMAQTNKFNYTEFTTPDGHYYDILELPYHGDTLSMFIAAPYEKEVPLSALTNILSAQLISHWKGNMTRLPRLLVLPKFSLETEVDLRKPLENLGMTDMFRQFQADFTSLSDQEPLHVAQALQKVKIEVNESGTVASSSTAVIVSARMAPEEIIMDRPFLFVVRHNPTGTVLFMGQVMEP
- assay: PAI-1 inhibitory activity, Test Method A (tPA fluorogenic substrate, Tris buffer pH8.0, 37 C)
- Type: biochemical
- particulars: test compound 25 μM; Test Method A

>  <smiles input>
COc1cccc(N2N=C(C(C)C)C(=Cc3ccc(O)c(O)c3)C2=O)c1

>  <readout units>
%

>  <Inhibitory Ratio at 25 μM (%)>
44

$$$$
>  <smiles input>
COc1cc(C=C2C(=O)N(c3cccc(C(=O)O)c3)N=C2C)cc(Br)c1OCC(=O)NCc1ccccc1

>  <readout units>
%

>  <Inhibitory Ratio at 25 μM (%)>
62

$$$$
>  <smiles input>
C=CCOc1ccc(C=C2C(=O)N(c3ccc(Cl)c(C(=O)O)c3)N=C2C)cc1OC

>  <readout units>
%

>  <Inhibitory Ratio at 25 μM (%)>
27

$$$$
>  <smiles input>
O=C1SC(=Cc2ccc(O)c(O)c2)C(=O)N1Cc1ccc([N+](=O)[O-])cc1

>  <readout units>
%

>  <Inhibitory Ratio at 25 μM (%)>
82

$$$$

###

- tested on: recombinant human PAI-1 (Homo sapiens, UniProt P05121)
- assay: PAI-1 inhibitory activity, Test Method A (tPA fluorogenic substrate, Tris buffer pH8.0, 37 C)
- Assay type: biochemical
- particulars: test compound 25 μM; Test Method A
quantity kind: Inhibitory Ratio at 25 μM (%)

>  <smiles input>
COC(=O)c1cccc(N2N=C(c3ccccc3)C(=Cc3ccc(O)c(O)c3)C2=O)c1

>  <meas value>
>99%

$$$$
>  <smiles input>
O=C1SC(=Cc2ccc(O)c(O)c2)C(=O)N1Cc1ccc(Oc2ccccc2)cc1

>  <meas value>
>99%

$$$$
>  <smiles input>
CC1=NN(c2cccc(C(=O)O)c2)C(=O)C1=Cc1ccc(-c2cc(Cl)cc(Cl)c2)o1

>  <meas value>
59%

$$$$
>  <smiles input>
CC(C)C1=NN(c2cccc(C(=O)O)c2)C(=O)C1=Cc1ccc(-c2cc(Cl)cc(Cl)c2)o1

>  <meas value>
31%

$$$$
>  <smiles input>
O=C1SC(=Cc2cccc(O)c2O)C(=O)N1Cc1ccc(C(F)(F)F)cc1

>  <meas value>
>99%

$$$$
>  <smiles input>
CC(C)(C)C1=NN(c2cc(Cl)cc(Cl)c2)C(=O)C1=Cc1ccc(O)c(O)c1

>  <meas value>
>99%

$$$$
>  <smiles input>
O=C1C(=Cc2cc(O)c(O)cc2O)C(c2ccccc2)=NN1c1cc(Cl)cc(Cl)c1

>  <meas value>
>99%

$$$$
>  <smiles input>
COc1ccc(N2C(=O)C(=Cc3ccc(O)c(O)c3)SC2=S)cc1OC

>  <meas value>
56%

$$$$

###

- tested on: recombinant human PAI-1 (Homo sapiens, UniProt P05121)
- assay: PAI-1 inhibitory activity, Test Method A (tPA fluorogenic substrate, Tris buffer pH8.0, 37 C)
- Assay type: biochemical
- particulars: 25 μM test compound; Test Method A
Listed molecules paired with reported Inhibitory Ratio at 25 μM (%)

>  <smiles input>
O=C(O)c1cc(C=C2SC(=O)N(Cc3ccc(Cl)c(Cl)c3)C2=O)cc(-c2ccccc2)c1O

>  <tested on>
recombinant human PAI-1 (Homo sapiens, UniProt P05121)

>  <Inhibitory Ratio at 25 μM (%)>
87%

$$$$
>  <smiles input>
O=C1SC(=Cc2cc(C=Cc3ccccc3)ccc2O)C(=O)N1Cc1ccc(Cl)c(Cl)c1

>  <tested on>
recombinant human PAI-1 (Homo sapiens, UniProt P05121)

>  <Inhibitory Ratio at 25 μM (%)>
89%

$$$$
>  <smiles input>
O=C(Nc1ccc(O)c(O)c1)c1cc(C=C2SC(=O)N(Cc3cc(C(F)(F)F)ccc3C(F)(F)F)C2=O)ccc1O

>  <tested on>
recombinant human PAI-1 (Homo sapiens, UniProt P05121)

>  <Inhibitory Ratio at 25 μM (%)>
>99%

$$$$
>  <smiles input>
COc1ccc(NC(=O)c2cc(C=C3SC(=O)N(Cc4ccc(Cl)cc4Cl)C3=O)ccc2O)cc1OC

>  <tested on>
recombinant human PAI-1 (Homo sapiens, UniProt P05121)

>  <Inhibitory Ratio at 25 μM (%)>
>99%

$$$$
>  <smiles input>
COCC1=NN(c2cc(Cl)cc(Cl)c2)C(=O)C1=Cc1cc(O)c(O)cc1O

>  <tested on>
recombinant human PAI-1 (Homo sapiens, UniProt P05121)

>  <Inhibitory Ratio at 25 μM (%)>
>99%

$$$$
>  <smiles input>
O=C(Nc1cccc(O)c1O)c1cc(C=C2SC(=O)N(Cc3ccc(Cl)c(Cl)c3)C2=O)ccc1O

>  <tested on>
recombinant human PAI-1 (Homo sapiens, UniProt P05121)

>  <Inhibitory Ratio at 25 μM (%)>
>99%

$$$$
>  <smiles input>
CC(C)C1=NN(c2cc(Cl)cc(Cl)c2)C(=O)C1=Cc1cc(O)c(O)c(Br)c1

>  <tested on>
recombinant human PAI-1 (Homo sapiens, UniProt P05121)

>  <Inhibitory Ratio at 25 μM (%)>
>99%

$$$$
>  <smiles input>
O=C1SC(=Cc2c[nH]c3ccccc23)C(=O)N1Cc1ccc(Cl)c(Cl)c1

>  <tested on>
recombinant human PAI-1 (Homo sapiens, UniProt P05121)

>  <Inhibitory Ratio at 25 μM (%)>
36%

$$$$
